Data provenance: paper PMC5656653

assay: Biodistribution experiments in normal mice after i.v. injection; format: in vivo; conditions: male, ddY, mouse, in vivo, iv, total radioactivity, Biodistribution of radioactivity, Blood
Where a SMILES comes first, the peptide text is derived from it. [ ]: non-standard residue; d: D form. The star is where a group is joined. DOTA = O=C(O)CN1CCN(CC(=O)O)CCN(CC(=O)*)CCN(CC(=O)O)CC1
measuredAttribute: tissue uptake dose at 10 min (%ID)
Give bare numbers, in %ID.

Look up tissue uptake dose at 10 min: O=C(O)C[C@@H](NC(=O)[C@@H](CC(=O)O)NC(=O)CN1CCN(CC(=O)O)CCN(CC(=O)O)CCN(CC(=O)O)CC1)C(=O)O [^67Ga-DOTA-(D-Asp)2, metal not drawn] ({DOTA}-[dD]-[dD]-OH)
2.19
